Reference for the values: ChEMBL document CHEMBL1687777

- System: Klebsiella pneumoniae
- test: Antibacterial activity against porin, OmpA positive Klebsiella pneumoniae KPBj3 expressing efflux system by disk agar diffusion method
- Format: functional
I'd be grateful if you could share measured log10(MIC) for these entries.
Please interpret these as log10 of MIC where MIC is in µg/mL.

Answered cases to consult:
[[record]]
compound = "CO[C@@]1(NC(=O)Cc2cccs2)C(=O)N2C(C(=O)O)=C(COC(N)=O)CS[C@@H]21 [CEFOXITIN]"
experimentalresult = 0.60

[[record]]
compound = "C[C@@H](O)[C@H]1C(=O)N2C(C(=O)O)=C(S[C@@H]3CN[C@H](C(=O)Nc4cccc(C(=O)O)c4)C3)[C@H](C)[C@H]12"
experimentalresult = -2.15

[[record]]
compound = "CO/N=C(\\C(=O)N[C@@H]1C(=O)N2C(C(=O)O)=C(COC(C)=O)CS[C@H]12)c1csc(N)n1 [CEFOTAXIME]"
experimentalresult = -1.22

[[record]]
compound = "O=C(N[C@H](CO)[C@H](O)c1ccc([N+](=O)[O-])cc1)C(Cl)Cl [CHLORAMPHENICOL]"
experimentalresult = 2.11

[[record]]
compound = "CC(C)(O/N=C(\\C(=O)N[C@@H]1C(=O)N2C(C(=O)[O-])=C(C[n+]3ccccc3)CS[C@H]12)c1csc(N)n1)C(=O)O [CEFTAZIDIME]"
experimentalresult = -0.60


Please turn your attention to the following entry.
query: I would be grateful if you could share the reported log10(MIC) for CCn1cc(C(=O)O)c(=O)c2ccc(C)nc21 [NALIDIXIC ACID] .
result: 1.51
